- study.target: human secretin receptor (hSCTR) (human, UniProt P47872 23-440)
- Sequence (P47872 23-440): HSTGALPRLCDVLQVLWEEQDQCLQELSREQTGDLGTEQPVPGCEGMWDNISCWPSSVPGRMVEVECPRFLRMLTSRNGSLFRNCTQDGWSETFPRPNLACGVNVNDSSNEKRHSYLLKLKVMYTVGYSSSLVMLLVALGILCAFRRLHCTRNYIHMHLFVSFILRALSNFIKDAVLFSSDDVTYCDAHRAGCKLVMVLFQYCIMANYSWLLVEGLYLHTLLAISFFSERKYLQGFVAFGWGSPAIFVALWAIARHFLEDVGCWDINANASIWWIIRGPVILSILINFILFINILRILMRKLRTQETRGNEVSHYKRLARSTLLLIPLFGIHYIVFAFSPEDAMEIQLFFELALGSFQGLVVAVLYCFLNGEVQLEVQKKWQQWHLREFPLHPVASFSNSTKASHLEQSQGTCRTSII
- test.description: cell-based or functional assay
Numbered stars: 1 amine (or outer) side, 2 acyl side, 3 side chain; on linkers, the order of the positions; unused ones are H or OH. Square brackets hold non-standard residues; d marks the D form. Side chains are listed from the residue outwards. Ends that are not written are not given here. * marks the point of attachment. C20 diacid = O=C(O)CCCCCCCCCCCCCCCCCCC(=O)*; γGlu = O=C(O)[C@H](CCC(=O)[*:2])N[*:1]; AEEA = NCCOCCOCC(=O)O; Aib = CC(C)(N)C(=O)O
observed.property: pEC50 hSCTR

Input: // query pEC50 hSCTR value for entry H[Aib]EGTFTSDVSFLK([AEEA-AEEA-γGlu-C20 diacid])EEAAAQRFLEHLV-NH2 [SEQ ID NO: 63]
Output: 5 -log M

Input: // query pEC50 hSCTR value for entry H[Aib]EGTFTSDVSTLK([AEEA-AEEA-γGlu-C20 diacid])EFAAEQRFLEHLV-NH2 [SEQ ID NO: 89]
Output: 5.7 -log M

Input: // query pEC50 hSCTR value for entry H[Aib]EGTFTSDVSELKEEAAQQRFLEHLV-NH2 (not fully specified (residue 14); also: K14 lipidated with C20DA[γE][OEG][OEG]- or C18DA[γE][OEG][OEG]-) [SEQ ID NO: 14]
Output: 6.7 -log M

Input: // query pEC50 hSCTR value for entry H[Aib]EGTFTSDVSYLKEEAALQRFLEHLV-NH2 (not fully specified (residue 14)) [SEQ ID NO: 137]
Output: 7.1 -log M

Input: // query pEC50 hSCTR value for entry H[Aib]EGTFTSDVSELK([AEEA-AEEA-γGlu-C20 diacid])EEAASQRFLEHLV-NH2 [SEQ ID NO: 87]
Output: 5.8 -log M
